# Lookup of reported % inhibition of binding keyed by entry
biological target: T1, mucin domain-deleted Sudan GP (GPdMuc) (Sudan virus (SUDV), UniProt Q7T9D9 33-632); test: BLI competition on Sudan GPdMuc (upper table); competitor 316L
T1 construct: also called Sudan GPdMuc; GP(S)dMuc
quantity name: % inhibition of binding (%)

>>> readout_value("antibody 315S (antibody, V domains shown) VH: EVQLVESGGGVVQPGRSLRLSCAASGFTFKTYTMHWVRQAPGKGLEWVAVITDDGVNKKYADSVKGRFTISRDNSKNTLYLQMNSLRLEDTAVYYCARSVVVLAAYPLDYWGQGTMVTVSS VL: DIQMTQSPSSLSASVGDRVTITCRASQTISTYLHWYQQRPGKAPKLLIYAASSLQSGVPSRVSGSGSGTDFTLTITSLQPEDFATYYCLQTYSLPLTFGGGTNVEIK")
0.7
>>> readout_value("antibody 203S (antibody, V domains shown) VH: QVQLVQSGAEVKKPGSSVKVSCKASGGTFSSYAISWVRQAPGQGLEWLGRILPALGLANYAQKYQDRVKITADKSTSTAYMELSRLGSEDTAVYYCARDRWVGAARRGQYFDYWGQGTQVTVSS VL: DIQMTQSPATLSASVGDRVTITCRASQSIGTWLAWYQQKPGKAPKLLIYDASSLESGVPPRFSGSGSETEFTLTISSLQPDDFATYYCHQYKSYSYTFGQGTKLEIK")
10.3
>>> readout_value("antibody 528S (antibody, V domains shown) VH: EVQLAESGGGVVQPGRSLRLSCAASGFTFNSYGMHWVRQAPGKGLEWVAVIWDDGSKKYYADSVKGRFTISRDNSKNTLFLQMNSLRAEDTAVYYCARETIMFTFGEVIVSSRDNYYMDVWGKGTTVTVSS VL: EIVLTQSPATLSLSPGERATLSCRASQSVSNYLAWYQQKPGQAPRLLIYDASTRAIGIPARFSGVGSGTDFTLTISSLEPEDFAVYYCQQRSNWPPLTFGGGTKVEIK")
8.13
>>> readout_value("antibody 377S (antibody, V domains shown) VH: QVQLVQSGAEVKKPGSSVKVSCKASGGTFSNYAINWVRQAPGQGLEWMGRTIPFLGLTNYAENFQARVTITADKSTGTSYMQLSSLRSEDTAVYFCAKAATSGWSPFDNWGQGTLVTVSS VL: EIVLTQSPGTLSLSPGERATLSCRASQSISSSYFGWYQQKPGQAPRLLIYGASRRAAGIPDRFSCSGSGTDFTLTISRLEPEDFGVYYCQQYGSSPTFGQGTKVEIK")
39.4
>>> readout_value("antibody 338S (antibody, V domains shown) VH: EVQLVESGGGVVQPGRSLRLSCAASGFTFSQYGMHWVRQAPGKGLECVAVIWFDGSKKYYGDSVKGRFTISRDNSKNTLYLQMNSLRAEDTAVYFCARESLYYYDSGGHYYERGRIDYWGQGTLVTVSS VL: DIQMTQSPSSLSASVGDRVTITCRASQDISNFLAWFQQKPGKAPKSLIYAASSLLSGVPSKFSGSGSGTDFTLTISSLQPEDFATYYCQQYNSYPPTFGQGTKLEIK")
0.2
